target: T1, Anti-PSMA Fab (SEQ ID NOs: 19, 20); assay: phage binding ELISA; clonal phage on plate-captured biotinylated PSMA Fab, anti-M13 HRP detection
T1 construct: Biotinylated and captured on neutravidin coated plates in the phage ELISA; also called 006 PSMA Fab
Where no end group is shown, it is not given here.
Quick reference for Anti-PSMA Fab (SEQ ID NOs: 19, 20) signal among some binders

query: May I ask what Anti-PSMA Fab (SEQ ID NOs: 19, 20) signal has been recorded for NSNWCIPSWMCADI (cysteine pairing not given here; also: displayed on bacteriophage by fusion to pIII, tested as crude clonal phage supernatant) [Phage-2292] ?
result: 1.5

query: May I ask what Anti-PSMA Fab (SEQ ID NOs: 19, 20) signal has been recorded for NVKWCTPPWMCFLD (tested as crude clonal phage supernatant) [Phage-2296] ?
result: 1.5

query: May I ask what Anti-PSMA Fab (SEQ ID NOs: 19, 20) signal has been recorded for VEKWCIPPWMCVNS (tested as crude clonal phage supernatant) [Phage-2293] ?
result: 1.5

query: May I ask what Anti-PSMA Fab (SEQ ID NOs: 19, 20) signal has been recorded for DVMWCIPPWMCEHR (tested as crude clonal phage supernatant) [Phage-2295] ?
result: 1.5

query: May I ask what Anti-PSMA Fab (SEQ ID NOs: 19, 20) signal has been recorded for GGKWCKPSWMCFGM (tested as crude clonal phage supernatant) [Phage-2283] ?
result: 1.51

query: May I ask what Anti-PSMA Fab (SEQ ID NOs: 19, 20) signal has been recorded for THKWCIPVWMCEHQ (tested as crude clonal phage supernatant) [Phage-2297] ?
result: 1.5

query: May I ask what Anti-PSMA Fab (SEQ ID NOs: 19, 20) signal has been recorded for MINWCTPAWMCTGF (tested as crude clonal phage supernatant) [Phage-2284] ?
result: 1.51

query: May I ask what Anti-PSMA Fab (SEQ ID NOs: 19, 20) signal has been recorded for VDKQCRPAWMCEIW (tested as crude clonal phage supernatant) [Phage-2290] ?
result: 1.5

query: May I ask what Anti-PSMA Fab (SEQ ID NOs: 19, 20) signal has been recorded for EPKWCIPQWMCERF (tested as crude clonal phage supernatant) [Phage-2285] ?
result: 1.51

query: May I ask what Anti-PSMA Fab (SEQ ID NOs: 19, 20) signal has been recorded for VEKWCTPRWMCEGF (tested as crude clonal phage supernatant) [Phage-2287] ?
result: 1.51

query: May I ask what Anti-PSMA Fab (SEQ ID NOs: 19, 20) signal has been recorded for IHMLCSPPWMCVGL (tested as crude clonal phage supernatant) [Phage-2294] ?
result: 1.5

query: May I ask what Anti-PSMA Fab (SEQ ID NOs: 19, 20) signal has been recorded for VEKWCIPAWMCQQS (tested as crude clonal phage supernatant) [Phage-2291] ?
result: 1.5

query: May I ask what Anti-PSMA Fab (SEQ ID NOs: 19, 20) signal has been recorded for AEKWCIPPWMCVND (tested as crude clonal phage supernatant) [Phage-2286] ?
result: 1.51

query: May I ask what Anti-PSMA Fab (SEQ ID NOs: 19, 20) signal has been recorded for ELNWCTPPWMCNPM (tested as crude clonal phage supernatant) [Phage-2289] ?
result: 1.5

query: May I ask what Anti-PSMA Fab (SEQ ID NOs: 19, 20) signal has been recorded for HVKWCTPAWMCVSN (tested as crude clonal phage supernatant) [Phage-2288] ?
result: 1.51
